testSystem: Pyruvate kinase PKM (Homo sapiens) (UniProt P14618)
Sequence (P14618 whole entry, looked up, canonical isoform): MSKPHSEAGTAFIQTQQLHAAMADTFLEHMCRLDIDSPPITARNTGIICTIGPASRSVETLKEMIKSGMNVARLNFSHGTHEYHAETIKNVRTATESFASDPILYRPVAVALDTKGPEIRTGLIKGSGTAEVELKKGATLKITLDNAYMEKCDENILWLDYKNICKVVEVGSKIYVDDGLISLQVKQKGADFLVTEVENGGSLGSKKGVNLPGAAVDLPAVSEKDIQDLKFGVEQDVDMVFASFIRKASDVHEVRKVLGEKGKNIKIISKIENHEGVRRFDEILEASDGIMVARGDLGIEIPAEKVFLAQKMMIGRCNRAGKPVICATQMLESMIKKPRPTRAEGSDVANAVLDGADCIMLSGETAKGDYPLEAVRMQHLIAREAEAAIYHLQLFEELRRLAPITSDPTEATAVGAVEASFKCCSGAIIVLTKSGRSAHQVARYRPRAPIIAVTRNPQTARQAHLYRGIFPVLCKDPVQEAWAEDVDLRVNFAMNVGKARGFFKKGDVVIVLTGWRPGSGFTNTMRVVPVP
protocolDetails: Confirmation Concentration-Response Assay for Activators of Human Muscle isoform 2 Pyruvate Kinase
conditionDescription: purified hPK-M2, Kinase-Glo ATP luminescence, 1 h; series mostly up to 57.5 µM
Inconclusive results are not listed. Calls of active or inactive are those of the source. Calls come from the whole dose curve; as a rule, active = well fitted activation curve with a large enough effect; inconclusive = small, poorly fitted or top-dose-only effect; inactive = no such curve, though single readings can be large or run the other way.
One label from this list, please: active, inactive

# fetch the recorded call for "Cc1ccc(S(=O)(=O)N2CCCN(S(=O)(=O)c3ccc4c(c3)OCCO4)CC2)cc1" here
active

# fetch the recorded call for "CSc1cc2c(s1)c1cnn(Cc3ccccc3F)c(=O)c1n2C" here
active

# fetch the recorded call for "COc1ccc(S(=O)(=O)N2CCN(S(=O)(=O)c3c(F)cccc3F)CC2)cc1" here
active

# fetch the recorded call for "O=S(=O)(NCCCCNS(=O)(=O)c1c(F)cccc1F)c1ccc2c(c1)OCCO2" here
active

# fetch the recorded call for "COC(=O)CSC1=NS(=O)(=O)c2ccccc21" here
inactive

# fetch the recorded call for "O=S(=O)(c1ccccc1)N1CCN(S(=O)(=O)c2ccc3c(c2)OCCO3)CC1" here
active

# fetch the recorded call for "O=S(=O)(NCCCNS(=O)(=O)c1c(F)cccc1F)c1ccc2c(c1)OCCO2" here
active

# fetch the recorded call for "O=S(=O)(c1ccc2c(c1)OCCO2)N1CCN(S(=O)(=O)c2ccc3c(c2)OCCO3)CC1" here
active

# fetch the recorded call for "CC(C)c1cc2c(s1)c1cnn(Cc3ccccc3F)c(=O)c1n2C" here
active

# fetch the recorded call for "Cn1c2cc([N+](=O)[O-])sc2c2cnn(Cc3ccccc3F)c(=O)c21" here
active

# fetch the recorded call for "Cc1cc2c(s1)c1cnn(Cc3cc(C(F)(F)F)cc(Cl)c3F)c(=O)c1n2C" here
active

# fetch the recorded call for "Cc1cc2c(s1)c1cnn(Cc3ccc(F)cc3)c(=O)c1n2C" here
active

# fetch the recorded call for "O=S(=O)(c1ccc(Cl)cc1)N1CCN(S(=O)(=O)c2ccc3c(c2)OCCO3)CC1" here
active

# fetch the recorded call for S=C1NC(c2ccccc2)N2C(=S)NC(c3ccccc3)N12 (stereo unspecified) here
inactive

# fetch the recorded call for "O=S(=O)(c1ccc2c(c1)OCCO2)C1CCN(S(=O)(=O)c2c(F)cccc2F)CC1" here
active

# fetch the recorded call for CC(C)N1C(=S)SC(C)(C)C1NO (stereo unspecified) here
inactive

Where these numbers come from: PubChem BioAssay AID1751
